assay: MELAS cybrid and Rieske KO viability enhancers – cell-based, MELAS cybrids, Rieske KO mouse fibroblasts, CellTiter-Glo, primary screen (AID 1508586); settings: MELAS cybrid survival, low glucose, CellTiter-Glo 48 h; active compounds read high;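 note: test concentration not given here; z relative to plate mean and SD of compound and empty wells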
The source made the active and inactive calls.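 Rule for the calls: active = mean z-score across replicates of 1.96 or higher in either the MELAS or the Rieske mutant cell line; inactive = the rest.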
assay_metric: z-score

Q) Item "COc1c2occc2c(OC)c2c(=O)cc(C)oc12" has what recorded z-score?
A) -0.15 (inactive)

Q) # lookup: z-score of "CCOC(=O)O[C@]1(C(=O)OCCl)CC[C@H]2[C@@H]3CCC4=CC(=O)C=C[C@]4(C)[C@H]3[C@@H](O)C[C@@]21C"
A) 0.475 (inactive)

Q) If you can, please state the reported z-score value of CC(NCCC(c1ccccc1)c1ccccc1)c1ccccc1 (centres undefined) .
A) -0.775 (inactive)

Q) Given the compound "COCCCC/C(=N\OCCN)c1ccc(C(F)(F)F)cc1" , what is its reported z-score?
A) 0.622 (inactive)

Q) z-score for "CCN(CC)Cc1cc(Nc2ccnc3cc(Cl)ccc23)ccc1O" ?
A) 0.684 (inactive)

Q) Record request: z-score value, item "CC[C@]12CCCN3CCc4c(n(c5ccccc45)[C@@](O)(C(=O)OC)C1)[C@@H]32"
A) 0.291 (inactive)

Q) # z-score lookup, item COc1ccnc(CS(=O)c2nc3ccc(OC(F)F)cc3[nH]2)c1OC (centres undefined)
A) 0.74 (inactive)

Q) Consider the compound "CC(C)c1nc(CN(C)C(=O)N[C@H](C(=O)N[C@@H](Cc2ccccc2)C[C@H](O)[C@H](Cc2ccccc2)NC(=O)OCc2cncs2)C(C)C)cs1" and give its measured z-score.
A) -1.48 (inactive)

Q) Can you share its z-score? I mean this compound: CCCCC(CC)CN1CN(CC(CC)CCCC)CC(C)(N)C1 (centres undefined)
A) -1.45 (inactive)

Q) What does the data say about its z-score? Entry: "Cc1c(NC(C)C)c(=O)n(-c2ccccc2)n1C"
A) -0.485 (inactive)

Q) So what does the record say about z-score for "O=c1cc[nH]c(=S)[nH]1" ?
A) -0.297 (inactive)

Q) Reported z-score for CCC1(C)CC(=O)NC1=O (centres undefined) : what is it?
A) -0.00472 (inactive)

Q) Record request: z-score value, item "Cc1cc(CC(=O)O)n(C)c1C(=O)c1ccc(Cl)cc1"
A) -0.685 (inactive)

Q) z-score lookup needed for "CCn1cc(C(=O)O)c(=O)c2cnc(N3CCNCC3)nc21" , thanks.
A) 0.675 (inactive)

Q) Find the recorded z-score belonging to CCN(CCCCOC(=O)c1ccc(OC)c(OC)c1)C(C)Cc1ccc(OC)cc1 (centres undefined) and report it.
A) 1.33 (inactive)

Q) // query z-score value for entry CC(CN(C)C)CN1c2ccccc2CCc2ccccc21 (centres undefined)
A) -0.24 (inactive)

Q) Record request: z-score value, item "CCCCc1ccc2nc(NC(=O)OC)[nH]c2c1"
A) -2.16 (inactive)

Q) Need z-score, item "C[C@H]1O[C@@H](n2cc(F)c(=O)[nH]c2=O)[C@H](O)[C@@H]1O"
A) 0.0159 (inactive)

Q) Any idea what z-score was measured for "O=C(CCCCC(=O)Nc1c(I)cc(I)c(C(=O)O)c1I)Nc1c(I)cc(I)c(C(=O)O)c1I" ?
A) 0.645 (inactive)

Q) May I ask what z-score has been recorded for "Cc1c(C(N)=O)cc([N+](=O)[O-])cc1[N+](=O)[O-]" ?
A) -0.219 (inactive)

Q) Returns the measured z-score for the input compound. Input: "NC(=NCCCCCCN=C(N)/N=C(\N)Nc1ccc(Cl)cc1)/N=C(\N)Nc1ccc(Cl)cc1"
A) -4.55 (inactive)

Q) Given the compound C1CCC(C(CC2CCCCN2)C2CCCCC2)CC1 (centres undefined) , what is its reported z-score?
A) -1.07 (inactive)

Q) Could you tell me which z-score is on file for "CN(C)CCCN1c2ccccc2Sc2ccc(C(F)(F)F)cc21" ?
A) -0.173 (inactive)

Q) Which value of z-score has been reported for "O=C1c2cccc3c2[C@H](CCC3)CN1[C@@H]1CN2CCC1CC2" in the records?
A) 0.942 (inactive)

Q) Which z-score value belongs to "CCCCNc1c(C(=O)OCC)c(C)nc2c1cnn2CC" ?
A) 2.27 (active)

Q) Can you look up the measured z-score of "O=C(O)c1ccccc1OP(=O)(O)O" for me?
A) 0.629 (inactive)

Q) Quick one: z-score of Nc1nc2c(c(=O)[nH]1)N(C=O)C(CNc1ccc(C(=O)N[C@@H](CCC(=O)O)C(=O)O)cc1)CN2 (some centres undefined) ?
A) -0.42 (inactive)

Q) Would you kindly share the measured z-score for "Cc1cn[nH]c1" ?
A) 0.667 (inactive)

Q) Field request: z-score | item: "CC1=C(C(=O)O)N2C(=O)[C@@H](NC(=O)[C@H](N)c3ccc(O)cc3)[C@H]2SC1"
A) 0.444 (inactive)

Q) Record request: z-score value, item CC1CC(OC(=O)C(O)c2ccccc2)CC(C)(C)N1C (centres undefined)
A) -0.0236 (inactive)

Q) Recorded z-score for "CCC(=O)c1c(O)cc(O)cc1O" , please?
A) -0.229 (inactive)

Q) Requested read-out: z-score. Entry: Cc1cccc(C)c1NC(=O)C(C)N (centres undefined)
A) 0.748 (inactive)

Q) Suppose we examine the compound NC(=O)NC1NC(=O)NC1=O (centres undefined) ; what z-score value has been reported?
A) -0.771 (inactive)

Q) Dear colleague, I am looking for the recorded z-score of the following compound: "Cc1[nH]cnc1CN1CCc2c(c3ccccc3n2C)C1=O"
A) 0.685 (inactive)

Q) Query (compound): CN1CCOC(c2ccccc2)c2ccccc2C1 (centres undefined) ; field requested: z-score
A) 0.332 (inactive)

Q) Dear colleague, I am looking for the recorded z-score of the following compound: "CCCCCCCCCCCCCCCCOP(=O)([O-])OCC[N+](C)(C)C"
A) -0.744 (inactive)

Q) Endpoint output: z-score of "COCc1c(C(C)C)nc(C(C)C)c(/C=C/[C@@H](O)C[C@@H](O)CC(=O)O)c1-c1ccc(F)cc1" . Value?
A) -1.23 (inactive)

Q) Bench note: what z-score did "COc1cc2c(cc1OC)-c1cc(=Nc3c(C)cc(C)cc3C)n(C)c(=O)n1CC2" show?
A) 1.02 (inactive)

Q) Look up z-score: "Nc1ccc(S(=O)(=O)Nc2cnc3ccccc3n2)cc1"
A) 0.496 (inactive)

Q) Returns the measured z-score for the input compound. Input: "CC(=O)[C@@]1(O)CC[C@H]2[C@@H]3C[C@H](C)C4=CC(=O)C=C[C@]4(C)[C@@]3(F)[C@@H](O)C[C@@]21C"
A) -0.955 (inactive)

Q) Requested read-out: z-score. Entry: "CN1CCC(OC(c2ccccc2)c2ccccc2)CC1"
A) 0.35 (inactive)

Q) // z-score lookup, key: "CCCCC1(COC(=O)CCC(=O)O)C(=O)N(c2ccccc2)N(c2ccccc2)C1=O"
A) 0.542 (inactive)

Q) Quick one: z-score of "Cc1cc(=O)[nH]c(=S)[nH]1" ?
A) 0.105 (inactive)

Q) # z-score lookup, item "O=C(O)CCC(=O)Nc1ccc(S(=O)(=O)Nc2nccs2)cc1"
A) 0.0389 (inactive)
